Source: patent US8623843B2

Catalogue of persistent antimicrobial activity (plate counting method) readings, one per entry.
tested on: E. coli; test: persistent antimicrobial activity of treated glass surface, colony (plate) counting method, E. coli; type: cell-based; conditions: wash times 30
Respond with the bare value in %.

Inquiry: Requested read-out: persistent antimicrobial activity (plate counting method). Entry: CCO[Si](C)(CCC[N+](C)(C)CCC(=O)[O-])OCC
Reply text: 98.1

Inquiry: Repeat for the following molecule: CO[Si](CCCNCCNCCCS(=O)(=O)O)(OC)OC
Reply text: 98.0

Inquiry: Repeat for the following molecule: CC[N+](CC)(CCC[Si](OC)(OC)OC)CCCS(=O)(=O)[O-]
Reply text: 98.0

Inquiry: Repeat for the following molecule: CCO[Si](CCC[N+](C)(C)CCCS(=O)(=O)[O-])(OCC)OCC
Reply text: 99.2

Inquiry: Repeat for the following molecule: CCO[Si](C)(CCC[N+](C)(C)CC(=O)[O-])OCC
Reply text: 97.2

Inquiry: Repeat for the following molecule: CCC[N+](CCC)(CCC[Si](OC)(OC)OC)CCCS(=O)(=O)[O-]
Reply text: 98.2

Inquiry: Repeat for the following molecule: CC[N+](CC)(CCC[Si](OC)(OC)OC)CCS(=O)(=O)[O-]
Reply text: 97.2

###

Catalogue of persistent antimicrobial activity (plate counting method) readings, one per entry.
system: S. aureas; assay: persistent antimicrobial activity of treated glass surface, colony (plate) counting method, S. aureas; format: cell-based; parameters: concentration or dose not given beside the values; conditions: wash times 10
Respond with the bare value in %.

{"molecule": "CC[N+](CC)(CCC[Si](OC)(OC)OC)CCS(=O)(=O)[O-] [Embodiment 6, (CH3O)3Si(CH2)3^+N(CH2CH3)2(CH2)2SO3^−]", "target_or_system": "S. aureas", "units": "%", "recorded_result": 98.2}
{"molecule": "CCO[Si](C)(CCC[N+](C)(C)CCC(=O)[O-])OCC [Embodiment 4]", "target_or_system": "S. aureas", "units": "%", "recorded_result": 98.9}
{"molecule": "CCO[Si](C)(CCC[N+](C)(C)CC(=O)[O-])OCC [Embodiment 3, (CH3CH2O)2SiCH3(CH2)3^+N(CH3)2CH2CO2^−]", "target_or_system": "S. aureas", "units": "%", "recorded_result": 98.2}

With those in mind, consider the next molecule.
Inquiry: Requested read-out: persistent antimicrobial activity (plate counting method). Entry: CCC[N+](CCC)(CCC[Si](OC)(OC)OC)CCCS(=O)(=O)[O-] [Embodiment 8]
Reply text: 98.8

###

Catalogue of persistent antimicrobial activity (plate counting method) readings, one per entry.
system: E. coli; test: persistent antimicrobial activity of treated glass surface, colony (plate) counting method, E. coli; type: cell-based; details: wash times 0
Respond with the bare value in %.

Consider the worked cases shown below.
{"chem_smiles": "CCC[N+](CCC)(CCC[Si](OC)(OC)OC)CCCS(=O)(=O)[O-]", "target_or_system": "E. coli", "recorded_result": 99.9}
{"chem_smiles": "CCO[Si](C)(CCC[N+](C)(C)CCC(=O)[O-])OCC", "target_or_system": "E. coli", "recorded_result": 99.9}
{"chem_smiles": "CCO[Si](CCC[N+](C)(C)CCCS(=O)(=O)[O-])(OCC)OCC", "target_or_system": "E. coli", "recorded_result": 99.9}
{"chem_smiles": "CO[Si](CCCNCCNCCCS(=O)(=O)O)(OC)OC", "target_or_system": "E. coli", "recorded_result": 99.9}
{"chem_smiles": "CCO[Si](C)(CCC[N+](C)(C)CC(=O)[O-])OCC", "target_or_system": "E. coli", "recorded_result": 99.9}
{"chem_smiles": "CC[N+](CC)(CCC[Si](OC)(OC)OC)CCCS(=O)(=O)[O-]", "target_or_system": "E. coli", "recorded_result": 99.9}

Inquiry: Requested read-out: persistent antimicrobial activity (plate counting method). Entry: CC[N+](CC)(CCC[Si](OC)(OC)OC)CCS(=O)(=O)[O-]
Reply text: 99.9

###

Catalogue of persistent antimicrobial activity (plate counting method) readings, one per entry.
test system: S. aureas; assay: persistent antimicrobial activity of treated glass surface, colony (plate) counting method, S. aureas; type: cell-based; parameters: concentration or dose not given beside the values; details: wash times 30
Respond with the bare value in %.

Consider the worked cases shown below.
{"compound": "CC[N+](CC)(CCC[Si](OC)(OC)OC)CCS(=O)(=O)[O-] [Embodiment 6, (CH3O)3Si(CH2)3^+N(CH2CH3)2(CH2)2SO3^−]", "target_or_system": "S. aureas", "units": "%", "recorded_result": 97.6}
{"compound": "CCO[Si](C)(CCC[N+](C)(C)CCC(=O)[O-])OCC [Embodiment 4]", "target_or_system": "S. aureas", "units": "%", "recorded_result": 98.3}
{"compound": "CO[Si](CCCNCCNCCCS(=O)(=O)O)(OC)OC [Embodiment 7, (CH3O)3Si(CH2)3NH(CH2)2^+NH2(CH2)3SO3^−]", "target_or_system": "S. aureas", "units": "%", "recorded_result": 98.2}

With those in mind, consider the next compound.
Inquiry: Requested read-out: persistent antimicrobial activity (plate counting method). Entry: CC[N+](CC)(CCC[Si](OC)(OC)OC)CCCS(=O)(=O)[O-] [Embodiment 5, (CH3O)3Si(CH2)3^+N(CH2CH3)2(CH2)3SO3^−]
Reply text: 98.2

###

tested on: S. aureas; assay: persistent antimicrobial activity of treated glass surface, colony (plate) counting method, S. aureas; type: cell-based; design: concentration or dose not given beside the values; settings: wash times 10
measurement_type: persistent antimicrobial activity (plate counting method)
Reply with a number, then the unit it belongs to.

{"chem_smiles": "CO[Si](CCCNCCNCCCS(=O)(=O)O)(OC)OC", "recorded_result": "99.1%"}
{"chem_smiles": "CC[N+](CC)(CCC[Si](OC)(OC)OC)CCCS(=O)(=O)[O-]", "recorded_result": "98.8%"}

With those in mind, consider the next compound.
Inquiry: Requested read-out: persistent antimicrobial activity (plate counting method). Entry: CCO[Si](CCC[N+](C)(C)CCCS(=O)(=O)[O-])(OCC)OCC
Reply text: 99.5%

###

tested on: S. aureas; experiment: persistent antimicrobial activity of treated glass surface, colony (plate) counting method, S. aureas; type: cell-based; design: concentration or dose not given beside the values; details: wash times 30
measurement_type: persistent antimicrobial activity (plate counting method) (%)
Respond with the bare value in %.

Consider the worked cases shown below.
{"chem_smiles": "CCO[Si](C)(CCC[N+](C)(C)CC(=O)[O-])OCC", "recorded_result": 97.6}
{"chem_smiles": "CCC[N+](CCC)(CCC[Si](OC)(OC)OC)CCCS(=O)(=O)[O-]", "recorded_result": 98.5}

Inquiry: Requested read-out: persistent antimicrobial activity (plate counting method). Entry: CCO[Si](CCC[N+](C)(C)CCCS(=O)(=O)[O-])(OCC)OCC
Reply text: 99.0

###

tested on: E. coli (8099); experiment: minimum inhibitory / bactericidal concentration for E. coli; format: cell-based
Catalogue of minimum inhibitory concentration (MIC) readings, one per entry.
Respond with the bare value in mg/mL.

{"chem_smiles": "CCO[Si](C)(CCC[N+](C)(C)CCC(=O)[O-])OCC", "units": "mg/mL", "minimum inhibitory concentration (MIC)": 10}
{"chem_smiles": "CCO[Si](C)(CCC[N+](C)(C)CC(=O)[O-])OCC", "units": "mg/mL", "minimum inhibitory concentration (MIC)": 20}
{"chem_smiles": "CCC[N+](CCC)(CCC[Si](OC)(OC)OC)CCCS(=O)(=O)[O-]", "units": "mg/mL", "minimum inhibitory concentration (MIC)": 15}
{"chem_smiles": "CO[Si](CCCNCCNCCCS(=O)(=O)O)(OC)OC", "units": "mg/mL", "minimum inhibitory concentration (MIC)": 25}
{"chem_smiles": "CC[N+](CC)(CCC[Si](OC)(OC)OC)CCS(=O)(=O)[O-]", "units": "mg/mL", "minimum inhibitory concentration (MIC)": 20}

Inquiry: Requested read-out: minimum inhibitory concentration (MIC). Entry: CCO[Si](CCC[N+](C)(C)CCCS(=O)(=O)[O-])(OCC)OCC
Reply text: 15

Inquiry: Repeat for the following molecule: CC[N+](CC)(CCC[Si](OC)(OC)OC)CCCS(=O)(=O)[O-]
Reply text: 15
